For each entry below, report its growth inhibition value.
Test: NCI Yeast Anticancer Drug Screen. Data for the wt2 strain (AID 169);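 note: 0% = growth of vehicle-treated yeast cultures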
Conditions: S. cerevisiae wt2 strain growth inhibition; at 100.0 µM; active compounds read high
About 79,000 compounds went through this panel and 15% of them were active in at least one assay; those are over-represented in the sample as a whole.
One number for each entry, in %.

{"compound": "O=C1C=CC(=Nc2cccc3c2-c2ccccc2C3=O)O1", "unit_name": "%", "numeric_readout": 99}
{"compound": "c1c[nH]c(CN2CCN(Cc3ncc[nH]3)CC2)n1", "unit_name": "%", "numeric_readout": 99}
{"compound": "Cc1ccc(Nc2n[nH]c(=S)s2)c(C)c1", "unit_name": "%", "numeric_readout": 91}

Would you be so kind as to report growth inhibition for each listed record?
1. CC(C)[Si]1(C(C)C)OCC2OC(n3cnc4c(N)ncnc43)C(N)C2O[Si](C(C)C)(C(C)C)O1 (stereo unspecified)
2. OC(CC(O)(C(F)(F)F)C(F)(F)F)c1ccc(C(O)CC(O)(C(F)(F)F)C(F)(F)F)cc1 (stereo unspecified)
3. CCC(C)COC(=O)Nc1cccc(Cl)c1 (stereo unspecified)
4. CC(CN(C)C)C(=O)/C=C/c1ccc(Cl)c(Cl)c1 (stereo unspecified)
5. CC(=O)N1C=Cc2c(c(C)c3c([nH]c4ccccc43)c2C)C1
6. CC(C)=CCc1c2c(c(O)c3c(=O)c(-c4ccc(O)c(O)c4)coc13)C=CC(C)(C)O2
7. CC(C)(CN1CCCCC1)C(=O)/C=C/c1c(Cl)cccc1Cl
8. O=C1Oc2ccccc2C(=O)/C1=C/N1C(=O)N/C(=C\c2ccccc2Br)C1=O

-- reply
1: 97; 2: 100; 3: 99; 4: 98; 5: 92; 6: 87; 7: 98; 8: 96

* * *

For each entry below, report its growth inhibition value.
Assay: NCI Yeast Anticancer Drug Screen. Data for the rad14 strain (AID 159);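 note: 0% = growth of vehicle-treated control cultures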
Details: S. cerevisiae rad14 strain growth inhibition; at 100.0 µM; active compounds read high
The panel holds about 79,000 compounds, 15% with a hit somewhere; the sample as a whole holds those more often. Activity calls are given as the source filed them. Rule as the data show it: active = growth inhibition above about 70%; inactive = the rest.

These recorded examples may help you get a feel for the data.
{"compound": "OC1(c2ccccc2)C2CC=CC2C1(c1ccccc1)c1ccccc1 (stereo unspecified)", "result": "19% (inactive)"}
{"compound": "CCOC(=O)/C(=C/c1cccc(Cl)c1)N(CC)CC", "result": "93% (active)"}

Would you be so kind as to report growth inhibition for each listed record?
1. O=C1C[C@H]2[C@H](c3ccc(Br)cc3)[C@H]3C(=O)c4ccccc4NC(=O)[C@@H]3[C@@]2(O)c2ccccc2N1
2. CCOC(=O)C(Cc1c2ccccc2cc2ccccc12)(NC(C)=O)C(=O)OCC
3. COc1ccc(C(C)c2cc3c(cc2OC(C)O)OCO3)cc1 (stereo unspecified)
4. C=COC(=O)N[C@H]1CCc2cc(OC)c(OC)c(OC)c2-c2ccc(SC)c(=O)cc21
5. Nc1ccc2cc(Br)ccc2c1Br

-- reply
27% (inactive)
-1% (inactive)
69% (inactive)
93% (active)
26% (inactive)

Would you be so kind as to report growth inhibition for each listed record?
1. CCC(/C=C/c1ccccc1)=N\Nc1ccc(Cl)cc1
2. COc1cc2c(cc1OC)[C@@H](Nc1ccc(C#N)cc1)C1COC(=O)[C@@H]1C2c1cc(OC)c(O)c(OC)c1 (stereo partly specified)
3. Cc1cc2nc3ccccc3n2c2ccccc12
4. COc1cc([N+](=O)[O-])c2ncccc2c1Br

-- reply
["76% (active)", "81% (active)", "35% (inactive)", "55% (inactive)"]
